study_target: Cyclin-dependent kinase 9 (Homo sapiens)
Sequence (P50750 whole entry): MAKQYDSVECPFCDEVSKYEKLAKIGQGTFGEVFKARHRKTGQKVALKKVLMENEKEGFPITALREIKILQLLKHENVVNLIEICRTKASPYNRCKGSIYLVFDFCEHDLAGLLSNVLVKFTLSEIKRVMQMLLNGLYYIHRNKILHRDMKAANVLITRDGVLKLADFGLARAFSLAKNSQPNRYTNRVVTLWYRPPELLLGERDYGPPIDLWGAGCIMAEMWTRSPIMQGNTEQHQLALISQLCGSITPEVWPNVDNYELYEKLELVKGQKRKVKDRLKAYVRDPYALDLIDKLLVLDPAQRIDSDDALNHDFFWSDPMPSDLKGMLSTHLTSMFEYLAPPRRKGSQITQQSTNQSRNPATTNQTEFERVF
assay_info: Inhibition of CDK9 (unknown origin) at 20 nM in presence of ATP by ADP-Glo kinase assay relative to control
endpoint_name: inhibition (%)
Entry rule: numbers only, all in %.

Reported inhibition, compound COc1cc(O)c2c(=O)cc(-c3ccc(N4CCN(C(=O)CNc5cccc6c5C(=O)N(C5CCC(=O)NC5=O)C6=O)CC4)cc3)oc2c1C1=CCN(C)CC1 (stereo not drawn) : ____
84.1

// lookup inhibition for COc1cc(O)c2c(=O)cc(-c3ccc(N4CCN(CC5CCN(c6cccc7c6C(=O)N(C6CCC(=O)NC6=O)C7=O)CC5)CC4)cc3)oc2c1C1=CCN(C)CC1 (stereo not drawn)
89.3

For the compound shown here, COc1cc(O)c2c(=O)cc(-c3ccc(N4CCN(CCC5CCN(c6ccc7c(c6)C(=O)N(C6CCC(=O)NC6=O)C7=O)CC5)CC4)cc3)oc2c1C1=CCN(C)CC1 (stereo not drawn) , give the reported inhibition.
75
